# Assay target: mCB2R (Mus musculus, UniProt P47936)
# Sequence (P47936 whole entry): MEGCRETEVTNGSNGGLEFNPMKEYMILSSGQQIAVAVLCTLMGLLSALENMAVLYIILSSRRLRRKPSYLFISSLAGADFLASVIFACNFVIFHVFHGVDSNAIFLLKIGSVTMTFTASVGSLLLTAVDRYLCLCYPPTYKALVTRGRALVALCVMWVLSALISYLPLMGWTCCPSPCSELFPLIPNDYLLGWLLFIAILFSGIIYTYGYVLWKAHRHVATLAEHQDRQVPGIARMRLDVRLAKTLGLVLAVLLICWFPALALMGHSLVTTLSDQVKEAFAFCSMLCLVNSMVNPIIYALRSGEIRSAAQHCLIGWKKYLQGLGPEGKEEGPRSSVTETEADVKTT
# Method notes: Operational analysis of biased signalling
Measurement name: β-AR-GTPγS bias factor (BF)
Please reply with the value in numeric form only.

Some entries whose results are on file:
CCCCCCC(C)(C)c1cc(OC)c(C2=C[C@H]3CC[C@]2(CO)C3(C)C)c(OC)c1 [HU910] | 0.18
CCCCCCC(C)(C)c1ccc([C@@H]2C[C@H](O)CC[C@H]2CCCO)c(O)c1 [CP55940] | 1
CCCCCCC(C)(C)c1cc(OC)c([C@@H]2C=C(CO)[C@@H]3C[C@H]2C3(C)C)c(OC)c1 [HU308] | 0.19

Consider the additional molecule presented here.
[ask] Form field: reported β-AR-GTPγS bias factor (BF) of CCCC(C)(C)c1ccc2c(c1)OC(C)(C)[C@@H]1CC=C(C)C[C@@H]21 [JWH133]
[reply] 0.21

====

# Assay target: mCB2R (Mus musculus, UniProt P47936)
# Method notes: Operational analysis of biased signalling
# Condition parameters: relative effectiveness
Measurement name: RE β-AR
Please reply with the value in numeric form only.

Some entries whose results are on file:
CCCCCCC(C)(C)c1cc(OC)c([C@@H]2C=C(CO)[C@@H]3C[C@H]2C3(C)C)c(OC)c1 | 0.02
CCCCCCC(C)(C)c1cc(OC)c(C2=C[C@H]3CC[C@]2(CO)C3(C)C)c(OC)c1 | 0.04
CCCC(C)(C)c1ccc2c(c1)OC(C)(C)[C@@H]1CC=C(C)C[C@@H]21 | 0.04

[ask] Form field: reported RE β-AR of CCCCCCC(C)(C)c1ccc([C@@H]2C[C@H](O)CC[C@H]2CCCO)c(O)c1
[reply] 1.00

====

# Method notes: Pharmacokinetics, oral administration in mice
# Type: in vivo, mouse
# Condition parameters: male, C57BL/6J or C57BL/6JRj, mouse, plasma, po, 5 mg/kg
Measurement name: AUC(0-t)
Value and unit, in that order.

[ask] Form field: reported AUC(0-t) of CCCCCCC(C)(C)c1cc(OC)c([C@@H]2C=C(CO)[C@@H]3C[C@H]2C3(C)C)c(OC)c1
[reply] 253 ng·h/mL

====

# Condition parameters: membrane permeation coefficient
Given measured Pampa Peff, output fulfilled if it is greater than or equal to 1 cm/s*10-6 and not fulfilled if not.

Cc1c(C(=O)c2cccc3ccccc23)c2cccc3c2n1[C@H](CN1CCOCC1)CO3 | not fulfilled
COc1ccc(C(=O)c2c(C)n(CCN3CCOCC3)c3cc(I)ccc23)cc1 | not fulfilled
CCCCCCC(C)(C)c1cc(OC)c([C@@H]2C=C(CO)[C@@H]3C[C@H]2C3(C)C)c(OC)c1 | fulfilled
CCCCCCC(C)(C)c1ccc([C@@H]2C[C@H](O)CC[C@H]2CCCO)c(O)c1 | not fulfilled
CCCCCCC(C)(C)c1cc(O)c2c(c1)OC(C)(C)[C@@H]1CC=C(CO)C[C@@H]21 | not fulfilled
CN1CCCCC1Cn1cc(C(=O)c2cc([N+](=O)[O-])ccc2I)c2ccccc21 (racemic) [(rac)-AM1241] | fulfilled
Cc1c(C(=O)NN2CCCCC2)nn(-c2ccc(Cl)cc2Cl)c1-c1ccc(Cl)cc1 [SR141716A] | not fulfilled
CN1CCCC[C@H]1Cn1cc(C(=O)c2cc([N+](=O)[O-])ccc2I)c2ccccc21 [(S)-AM1241] | fulfilled

Turning to the following compound.
[ask] Could you tell me if the measured Pampa Peff of CN1CCCC[C@@H]1Cn1cc(C(=O)c2cc([N+](=O)[O-])ccc2I)c2ccccc21 [(R)-AM1241] reaches 1 cm/s*10-6 or more?
[reply] fulfilled

====

# RE cAMP listing for each entry below
# Assay target: hCB2R (Homo sapiens, UniProt P34972)
# Sequence (P34972 whole entry): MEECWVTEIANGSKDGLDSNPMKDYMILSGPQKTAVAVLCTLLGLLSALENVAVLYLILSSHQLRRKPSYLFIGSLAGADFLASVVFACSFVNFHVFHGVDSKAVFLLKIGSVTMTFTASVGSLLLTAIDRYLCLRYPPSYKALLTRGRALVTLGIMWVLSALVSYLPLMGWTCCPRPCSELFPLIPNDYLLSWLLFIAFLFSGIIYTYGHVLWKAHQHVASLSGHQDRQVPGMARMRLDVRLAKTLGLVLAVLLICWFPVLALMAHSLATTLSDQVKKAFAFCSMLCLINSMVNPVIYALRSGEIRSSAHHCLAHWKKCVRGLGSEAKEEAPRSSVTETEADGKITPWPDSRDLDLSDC
# Parameters: expressed in transfected cells; host or cells: Flp-In-293 (Invitrogen #R750-07), pcDNA5/FRT
# Condition parameters: hCB2R, relative effectiveness

CCCCCCC(C)(C)c1cc(OC)c(C2=C[C@H]3CC[C@]2(CO)C3(C)C)c(OC)c1 | 0.005

[ask] Form field: reported RE cAMP of CCCCC/C=C\C/C=C\C/C=C\C/C=C\CCCC(=O)OC(CO)CO
[reply] 0.0002

[ask] Form field: reported RE cAMP of CCCCCCC(C)(C)c1cc(OC)c([C@@H]2C=C(CO)[C@@H]3C[C@H]2C3(C)C)c(OC)c1
[reply] 0.006

[ask] Form field: reported RE cAMP of CCCCC/C=C\C/C=C\C/C=C\C/C=C\CCCC(=O)NCCO [Anandamide, N-arachidonoylethanolamine]
[reply] 0.00002

====

# log10(CL) listing for each entry below
# Condition parameters: i.v., mice
Scale: log10; quantity: CL; unit before log: mL/min/kg

Some entries whose results are on file:
CCCC(C)(C)c1ccc2c(c1)OC(C)(C)[C@@H]1CC=C(C)C[C@@H]21 | 1.18
Cc1ccc2c(c1)Cc1c(C(=O)NN3CCCCC3)nn(-c3ccc(Cl)cc3Cl)c1-2 | 1.60
CCCCCCC(C)(C)c1cc(OC)c(C2=C[C@H]3CC[C@]2(CO)C3(C)C)c(OC)c1 | 0.45
CN1CCCC[C@H]1Cn1cc(C(=O)c2cc([N+](=O)[O-])ccc2I)c2ccccc21 [(S)-AM1241] | 2.06
CCCn1c(C)c(C(=O)c2cccc3ccccc23)c2ccccc21 | 2.02

Consider the additional compound presented here.
[ask] Form field: reported log10(CL) of COc1ccc(C(=O)c2c(C)n(CCN3CCOCC3)c3cc(I)ccc23)cc1
[reply] 1.93

====

# ΔLogR β-AR listing for each entry below
# Assay target: hCB2R (Homo sapiens)
# Parameters: expressed in transfected cells; host or cells: Flp-In-293 (Invitrogen #R750-07), pcDNA5/FRT
# Condition parameters: hCB2R, reference CP55940
Please reply with the value in numeric form only.

CN1CCCC[C@@H]1Cn1cc(C(=O)c2cc([N+](=O)[O-])ccc2I)c2ccccc21 [(R)-AM1241] | -1.30
CN1CCCC[C@H]1Cn1cc(C(=O)c2cc([N+](=O)[O-])ccc2I)c2ccccc21 [(S)-AM1241] | -2.54
CCCCC/C=C\C/C=C\C/C=C\C/C=C\CCCC(=O)NCCO [Anandamide, N-arachidonoylethanolamine] | -2.96
CCCCCCC(C)(C)c1cc(OC)c([C@@H]2C=C(CO)[C@@H]3C[C@H]2C3(C)C)c(OC)c1 | -0.78
CCCCC/C=C\C/C=C\C/C=C\C/C=C\CCCC(=O)OC(CO)CO | -2.6
CN1CCCCC1Cn1cc(C(=O)c2cc([N+](=O)[O-])ccc2I)c2ccccc21 (racemic) [(rac)-AM1241] | -0.55

Consider the additional compound presented here.
[ask] For the record CCCCCCC(C)(C)c1cc(OC)c(C2=C[C@H]3CC[C@]2(CO)C3(C)C)c(OC)c1 , what value of ΔLogR β-AR is listed for hCB2R (Homo sapiens)?
[reply] -0.78

====

# Assay target: Rat recombinant TRPV2 (Rattus norvegicus)
# Construct: expressed in transfected cells; host or cells: HEK293 (plasmid a gift from HB Bradshaw, Indiana University)
# Sequence (Q9WUD2 1-761): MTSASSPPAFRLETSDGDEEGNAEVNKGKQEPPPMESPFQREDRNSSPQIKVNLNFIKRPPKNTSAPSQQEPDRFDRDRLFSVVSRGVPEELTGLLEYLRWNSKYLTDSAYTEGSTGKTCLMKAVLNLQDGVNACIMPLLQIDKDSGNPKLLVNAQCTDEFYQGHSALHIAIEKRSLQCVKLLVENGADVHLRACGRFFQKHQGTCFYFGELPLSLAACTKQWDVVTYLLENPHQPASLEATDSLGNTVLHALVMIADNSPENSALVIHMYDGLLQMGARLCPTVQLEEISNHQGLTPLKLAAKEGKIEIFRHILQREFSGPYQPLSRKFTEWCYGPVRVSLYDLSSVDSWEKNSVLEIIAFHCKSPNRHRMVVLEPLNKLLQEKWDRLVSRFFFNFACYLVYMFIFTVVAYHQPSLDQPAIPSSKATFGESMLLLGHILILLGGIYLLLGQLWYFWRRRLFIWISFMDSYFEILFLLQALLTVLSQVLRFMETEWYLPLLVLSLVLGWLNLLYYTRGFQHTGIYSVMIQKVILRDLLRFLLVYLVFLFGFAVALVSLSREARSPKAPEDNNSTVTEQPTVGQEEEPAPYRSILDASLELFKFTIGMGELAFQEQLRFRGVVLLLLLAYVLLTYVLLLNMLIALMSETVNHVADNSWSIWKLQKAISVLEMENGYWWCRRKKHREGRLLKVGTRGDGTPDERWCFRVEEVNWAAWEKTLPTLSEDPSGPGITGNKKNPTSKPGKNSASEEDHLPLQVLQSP
# Method notes: cell-based
# Assay type: cell-based
Measurement name: TRPV2 Efficacy (% ionomycin 4μM)

Some entries whose results are on file:
Cc1ccc2c(c1)Cc1c(C(=O)NN3CCCCC3)nn(-c3ccc(Cl)cc3Cl)c1-2 | < 10%
CCCCCCC(C)(C)c1cc(OC)c(C2=C[C@H]3CC[C@]2(CO)C3(C)C)c(OC)c1 | < 10%
CN1CCCC[C@H]1Cn1cc(C(=O)c2cc([N+](=O)[O-])ccc2I)c2ccccc21 [(S)-AM1241] | 11.6%

[ask] Form field: reported TRPV2 Efficacy (% ionomycin 4μM) of COc1ccc(C(=O)c2c(C)n(CCN3CCOCC3)c3cc(I)ccc23)cc1
[reply] < 10%

[ask] Form field: reported TRPV2 Efficacy (% ionomycin 4μM) of CN1CCCC[C@@H]1Cn1cc(C(=O)c2cc([N+](=O)[O-])ccc2I)c2ccccc21 [(R)-AM1241]
[reply] 14.5%

[ask] Form field: reported TRPV2 Efficacy (% ionomycin 4μM) of Cc1c(C(=O)NN2CCCCC2)nn(-c2ccc(Cl)cc2Cl)c1-c1ccc(I)cc1
[reply] < 10%

meta.source: paper PMC5216056
